Origin of measurements: the antibiotic and cytotoxicity screens of Wong et al. (2023)

test system: HSkMC; test: cytotoxicity call (relative viability < 0.9); conditions: 10 µM
Out of some 39,000 compounds screened, about 1,500 (3.8%) were called active. For the sample, actives were picked, then their nearest neighbours and some compounds at random.
Returns: one label drawn from active, inactive

Examples from the recorded data:
Molecule	Cat
COc1cc(C2c3cc4c(cc3C(OC3OC5COC(C)OC5C(O)C3O)C3COC(=O)C23)OCO4)cc(OC)c1O (centres undefined)	inactive
COc1cc([C@@H]2c3cc4c(cc3[C@@H](O[C@@H]3O[C@@H]5CO[C@@H](C)O[C@H]5[C@H](O)[C@H]3O)[C@@H]3COC(=O)[C@@H]23)OCO4)cc(OC)c1O	inactive
COc1cc([C@@H]2c3cc4c(cc3[C@@H](O[C@@H]3O[C@@H]5CO[C@@H](C)O[C@H]5[C@H](O)[C@H]3O)[C@H]3COC(=O)[C@H]23)OCO4)cc(OC)c1O	active

Here is another molecule to look at.
What was the test verdict on `Nc1ccn([C@@H]2O[C@H](CO)[C@@H](O)[C@H]2O)c(=O)n1` ?
inactive

* * *

tested on: HSkMC; assay: cytotoxicity call (relative viability < 0.9); settings: 10 µM
Out of some 39,000 compounds screened, about 1,500 (3.8%) were called active. Only a selection was taken, and actives are over-represented in it overall.
Returns: one label drawn from yes (1) for active, no (0) for inactive

Molecule	Cat
COc1cc2nc(N3CCN(C(=O)C4CCCO4)CC3)nc(N)c2cc1OC.Cl (configuration not stated)	no (0)

What was the test verdict on `C[C@@H]1CCCCO[C@H](CN(C)C(=O)c2ccccc2)[C@H](C)CN([C@@H](C)CO)C(=O)c2cc(NS(=O)(=O)c3ccccc3)ccc2O1` ?
no (0)

Now this one: `O=C(O)C[C@@H](O)C(=O)O`
no (0)

* * *

test system: HSkMC (human skeletal muscle cells); assay: cytotoxicity call (relative viability < 0.9); details: 10 µM
In all, about 39,000 compounds went through this assay and about 1,500 (3.8%) were called active. The list comes from a sample in which actives are over-represented; it also holds close analogues and randomly drawn compounds.
Returns: one label drawn from class 1 (active), class 0 (inactive)

Examples from the recorded data:
Smiles Repr	Cat
C[C@H](CO)N1C[C@H](C)[C@H](CN(C)Cc2ccncc2)OCCCC[C@H](C)Oc2ccc(NC(=O)Cc3ccccc3)cc2C1=O	class 0
Cc1ccc(S(=O)(=O)N(C)C[C@@H]2Oc3cc(Br)ccc3S(=O)(=O)N([C@@H](C)CO)C[C@@H]2C)cc1	class 0
C[C@@H]1CCCCO[C@H](CN(C)S(C)(=O)=O)[C@@H](C)CN([C@@H](C)CO)C(=O)c2cc(NS(=O)(=O)c3ccc(F)cc3)ccc2O1	class 0
COc1ccc2c3c([nH]c2c1)[C@H](CO)N(C[C@]13CCN(CCc2ccccc2)CC1)C(=O)CN1CCOCC1	class 0
C[C@H]1CN([C@@H](C)CO)S(=O)(=O)c2ccc(/C=C/c3ccccc3)cc2O[C@@H]1CN(C)C(=O)Nc1cc(F)ccc1F	class 0
C[C@@H]1CN([C@H](C)CO)C(=O)c2cc(NC(=O)c3ccccc3)ccc2O[C@@H](C)CCCCO[C@@H]1CN(C)Cc1ccc(Cl)c(Cl)c1	class 0
Cc1ccc(S(=O)(=O)Nc2cccc3c2O[C@@H](CN(C)Cc2ccc(Oc4ccccc4)cc2)[C@@H](C)CN([C@@H](C)CO)C3=O)cc1	class 0
O=C(NOCCO)c1cc(CN2OCCCC2=O)c(F)c(F)c1Nc1ccc(I)cc1F	class 0

What was the test verdict on `COc1ccc2c3c([nH]c2c1)[C@H](CO)N(Cc1ccc(cc1)Cl)C[C@]13CN(CCc2ccccc2)C1` ?
class 1
